TEST: NCI Yeast Anticancer Drug Screen. Data for the sgs1 mgt1 strain (AID 161);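 also: 0% = growth of cultures given vehicle only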
CONDITION_SET: S. cerevisiae sgs1 mgt1 strain, at 50.0 µM (retest, dose inferred, filed as 5.0), hits give high values
About 79,000 compounds went through this panel and 15% of them were active in at least one assay; those are over-represented in the sample as a whole.
growth inhibition of 70% or higher: yes (1). Under 70%: no (0).

query: Reported growth inhibition at or above 70%? COc1ccc(C2c3cc4c(cc3OC(C)(O)C2C)OCO4)cc1 (configuration not stated)
result: yes (1)

query: Also need "O=C1/C(=C/c2ccccc2)CN(C(=O)CCN2CCCC2)C/C1=C\c1ccccc1" , thanks.
result: yes (1)

query: Let us now turn to "CCCC(=O)NCCNC(=O)CCC"
result: no (0)

query: Same question, "Oc1ccc(Cc2cccc(Br)c2)c(O)c1" this time
result: yes (1)

query: Another compound: "CCC[CH2][Sn]([CH2]CCC)([O]C(=O)c1ccc(C)c(N)c1)[O]C(=O)c1ccc(C)c(N)c1"
result: yes (1)

query: What do you have for "O=C(Nc1ccccc1)OCCCCl" ?
result: no (0)

query: And the next one, "O=C(NC1(OC(=O)c2ccc(Cl)cc2)CC1)c1ccc(Cl)cc1" ?
result: yes (1)

query: Next record, please: "Cc1ccc(NNC2=NC(=S)NC(=O)C2)cc1"
result: yes (1)

query: How about "Cc1cc(Nc2ccc(N=Nc3ccc(O)c4ncccc34)cc2)nc(C)n1" ?
result: no (0)

query: Same question, "COc1cccc(/C=N/N(C)C)c1O" this time
result: no (0)

query: Subsequent entry: "COc1ccc(CSC(=S)Nc2ccc(Cl)c(C(F)(F)F)c2)cc1"
result: no (0)

query: Now this one: "O=c1[nH]c2c([N+](=O)[O-])cc(Cl)cc2nc1/C=C(\O)c1ccc2ccccc2c1"
result: yes (1)

query: One more compound: "O=[N+]([O-])/C=C/c1ccco1"
result: yes (1)

query: Can you handle "CCCCCCCCC[n+]1cccc(C(=O)c2ccccc2)c1" next?
result: yes (1)

query: Item: "CCc1c(-c2ccccc2)c(CN2CCCCC2)c2ccccn12"
result: no (0)

query: What about "c1ccc(COc2cccc3[nH]ccc23)cc1" ?
result: no (0)

query: Cool, now "CCOc1ccccc1C(=O)Oc1cccc(C)c1"
result: no (0)

query: Param item: O=C(NCc1ccccc1)C1C(=O)N(Cc2ccccc2)C(=O)/C1=N/O (configuration not stated)
result: no (0)

query: Quick one: "CS(=O)(=O)OCCN(CCOS(C)(=O)=O)c1ccc(C=Nc2cc(Cl)c(O)c(Cl)c2)c(Cl)c1"
result: no (0)

query: Then "CC(=O)N(c1ccccc1)C(C)C" ?
result: no (0)

query: Input "CCc1c(C)[nH]c2c([N+](=O)[O-])cccc12"
result: no (0)

query: Entry O=S1(=O)CC2C1C1(Cl)OC2(Cl)c2ccccc21 (configuration not stated) please
result: no (0)

query: Ok, now "CN(CCC1CCCCC1)CCC1CCCCC1"
result: yes (1)

query: Okay, and CN(C)CCCC1(c2ccccc2)SC(C)(C)c2ccc(Cl)cc21 (configuration not stated) ?
result: no (0)

query: Further, for "CCCn1cnc2c(SCc3ccc(Cl)cc3Cl)nc(N)nc21" ?
result: no (0)

query: Query "CCN(CC)CCOc1c(Cl)c(Cl)c(Cl)c(Cl)c1Cl" next
result: yes (1)

query: // query: C=C1C(=O)C23C(O)C1CC[C@H]2C12CCCC(C)(COC(C)=O)[C@H]1[C@H](O)[C@]3(O)OC2 (some centres not stated)
result: yes (1)

query: And then "CS(=O)(=O)OCCN(CCOS(C)(=O)=O)c1ccc(C=Nc2ccc(-c3csc(-c4ccc(Br)cc4)n3)cc2)c(Cl)c1" , what is it?
result: yes (1)

query: # repeat for COc1ccc(N2CCN(CC(O)COc3cc4c(c5c3CCCC5)CCCC4)CC2)cc1 (configuration not stated)
result: yes (1)

query: Moving on to COC1OC(COC(=O)c2ccccc2)CC1F (configuration not stated)
result: no (0)

query: Now the compound CCCCCC1OC1CC1OC1CCCCCCCC(=O)OC (configuration not stated)
result: no (0)

query: Quick one: "CCS(=O)(=O)/C=C/c1ccncc1"
result: no (0)

query: # repeat for "Nc1ccc2nnnn2c1"
result: yes (1)

query: Here is the next compound: "COc1cc2c(cc1OC)c1c(OC)c(OC)cc3c1c1c2sc(=S)n1CC3"
result: no (0)

query: Entry "COc1ccc(C(c2ccc(C(C)C)cc(OC)c2=O)c2ccc(C(C)C)cc(OC)c2=O)cc1" please
result: no (0)

query: Now try "CC(=O)Oc1c2ccccc2c(C)c2c1ccc1ccccc12" .
result: yes (1)

query: Repeat with "CCCNC(=O)c1cc2ccccc2cc1C(=O)OC"
result: yes (1)

query: // same read-out, input: "Cc1cc(C=Nc2ccccc2)c(O)c2ncccc12"
result: yes (1)

query: Entry OC(Cc1ccc2ccccc2c1)CN1CCC(c2ccccc2)CC1 (configuration not stated) please
result: yes (1)

query: Entry O=C1c2ccccc2C2N1CCCN2C(=O)c1sc2ccccc2c1Cl (configuration not stated) please
result: yes (1)

query: Also need "O=C1c2ccccc2C(=O)N1C(=NCc1ccccc1)c1ccccc1" , thanks.
result: no (0)

query: // next record "Nc1ncnc2c1c(-c1ccccc1)cn2-c1ccccc1"
result: yes (1)

query: What do you get for "COC(=O)C(=O)CC(=O)c1cccc(Cl)c1" ?
result: yes (1)

query: Now consider O=C1OC(C2OC(=O)C(=O)C2C(=O)c2ccc(Cl)c(Cl)c2)C(C(=O)c2ccc(Cl)c(Cl)c2)C1=O (configuration not stated) and answer again.
result: yes (1)

query: Further, for "CCOC(=O)C(/C=N\C(=S)Nc1c(CC)cccc1C(C)(C)C)=C(/O)c1ccccc1" ?
result: no (0)

Reference source for all entries: PubChem BioAssay (NCI)
